- tgt: T1, NKp46-His6 (Homo sapiens, UniProt O76036)
- T1 construct: recombinant human NKp46 (natural cytotoxicity receptor); soluble recombinant receptor; probably the extracellular domain; also called (rh) NKp46; recombinant NKp46-His6; source: bought: AcroBiosystems
- protocol notes: BLI; antibodies loaded at 5 µg/ml on anti-human-Fc (AHC) or anti-human-CH1 (FAB2G) biosensors; antigen in solution (EGFR 3.125-200 nM; NKp46 and NKp30 1.6-100 nM) in kinetics buffer (PBS, 0.1% Tween-20, 1% BSA); 25°C; 1:1 binding model
- condition: both partners purified
Would you kindly list pKd for each of these binders?
Answers are plain numbers, as −log10 of the molar value.

>>> readout_value("Anti-NKp46_EF_H05 (bispecific antibody, V domains shown, human IgG1 heavy chain constant region from its start to the KLTV motif before the EF loop of CH3; numbers count on: EU numbering; Gly4Ser linker; anti-EGFR bovine knob H05 (from an ultralong CDR-H3); human IgG1 heavy chain constant region from the RWQQ motif after the EF loop of CH3 to its end; as the light chain of m1; IgG1 with LALA; DKS of the EF loop replaced by G4S-knob-G4S (results); …) VH: QVQLVQSGAEVKKPGSSVKVSCKASGYTFSDYVINWVRQAPGQGLEWMGEIYPGSGTNYYNEKFKAKATITADKSTSTAYMELSSLRSEDTAVYYCARRGRYGLYAMDYWGQGTTVTVSS VL: DIQMTQSPSSLSASVGDRVTITCRASQDISNYLNWYQQKPGKAPKLLIYYTSRLHSGVPSRFSGSGSGTDFTFTISSLQPEDIATYFCQQGNTRPWTFGGGTKVEIK")
8.44
>>> readout_value("Anti-NKp46_EF_F06 (bispecific antibody, V domains shown, human IgG1 heavy chain constant region from its start to the KLTV motif before the EF loop of CH3; numbers count on: EU numbering; Gly4Ser linker; anti-EGFR bovine knob F06 (from an ultralong CDR-H3); human IgG1 heavy chain constant region from the RWQQ motif after the EF loop of CH3 to its end; as the light chain of m1; IgG1 with LALA; DKS of the EF loop replaced by G4S-knob-G4S (results); …) VH: QVQLVQSGAEVKKPGSSVKVSCKASGYTFSDYVINWVRQAPGQGLEWMGEIYPGSGTNYYNEKFKAKATITADKSTSTAYMELSSLRSEDTAVYYCARRGRYGLYAMDYWGQGTTVTVSS VL: DIQMTQSPSSLSASVGDRVTITCRASQDISNYLNWYQQKPGKAPKLLIYYTSRLHSGVPSRFSGSGSGTDFTFTISSLQPEDIATYFCQQGNTRPWTFGGGTKVEIK")
8.52

Now examine the next entry.
The reported value for Anti-NKp46_AB_H05 (bispecific antibody, V domains shown, human IgG1 heavy chain constant region from its start to the PPSR motif before the AB loop of CH3; numbers count on: EU numbering; Gly4Ser linker; anti-EGFR bovine knob H05 (from an ultralong CDR-H3); human IgG1 heavy chain constant region from the motif after the AB loop of CH3 (printed as NGVS) to its end; as the light chain of m1; IgG1 with LALA; EEMTK of the AB loop replaced by G4S-knob-G4S; …) VH: QVQLVQSGAEVKKPGSSVKVSCKASGYTFSDYVINWVRQAPGQGLEWMGEIYPGSGTNYYNEKFKAKATITADKSTSTAYMELSSLRSEDTAVYYCARRGRYGLYAMDYWGQGTTVTVSS VL: DIQMTQSPSSLSASVGDRVTITCRASQDISNYLNWYQQKPGKAPKLLIYYTSRLHSGVPSRFSGSGSGTDFTFTISSLQPEDIATYFCQQGNTRPWTFGGGTKVEIK in terms of pKd is 8.47
